- experimental-system: T1, Recombinant human MASP1 enzyme (fragment corresponding to amino acids 297-699, C-terminal His Tag) (human, UniProt P48740 297-699)
- T1 sequence: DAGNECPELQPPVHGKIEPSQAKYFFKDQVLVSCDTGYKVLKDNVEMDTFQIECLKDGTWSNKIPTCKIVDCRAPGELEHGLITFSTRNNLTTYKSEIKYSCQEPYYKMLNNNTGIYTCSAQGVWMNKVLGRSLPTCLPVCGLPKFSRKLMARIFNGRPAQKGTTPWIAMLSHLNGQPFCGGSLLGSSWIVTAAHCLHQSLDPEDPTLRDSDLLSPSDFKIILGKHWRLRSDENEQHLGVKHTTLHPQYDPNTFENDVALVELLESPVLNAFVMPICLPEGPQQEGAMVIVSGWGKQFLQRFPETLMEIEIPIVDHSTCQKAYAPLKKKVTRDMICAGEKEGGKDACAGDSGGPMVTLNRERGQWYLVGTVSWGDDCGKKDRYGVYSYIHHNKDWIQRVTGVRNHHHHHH
- assay-text: cell-based or functional assay
Bridge positions count the residues as written; N and C are the ends. Square brackets hold non-standard residues; d marks the D form. Primed or numbered codes have the meaning given here. Ends that are not written are not given here. * marks the point of attachment. Tranexamic″ = tranexamic acid, NC[C@H]1CC[C@@H](C(=O)*)CC1; Oic = O=C(O)[C@@H]1C[C@@H]2CCCC[C@@H]2N1; tBuAla = CC(C)(C)C[C@H](N)C(=O)O; Chg = N[C@H](C(=O)O)C1CCCCC1; Pen = CC(C)(S)[C@H](N)C(=O)O; NMeC = CN[C@@H](CS)C(=O)O; Sar = CNCC(=O)O
quantity-name: human MASP1 IC50 (nM)
Your answer is read as nM, so omit the unit and give the number.

Study these solved cases before continuing.
INSERT INTO measurements (binder, quantity_name, recorded_number) VALUES
  ('{Tranexamic″}-ICSRS[tBuAla]PPI[Pen]IP-NH2 (disulfide 2-10; SMILES CC[C@H](C)[C@@H]1NC(=O)[C@@H]2CCCN2C(=O)[C@@H]2CCCN2C(=O)[C@H](CC(C)(C)C)NC(=O)[C@H](CO)NC(=O)[C@H](CCCNC(=N)N)NC(=O)[C@H](CO)NC(=O)[C@@H](NC(=O)[C@@H](NC(=O)[C@H]2CC[C@@H](CN)CC2)[C@@H](C)CC)CSSC(C)(C)[C@@H](C(=O)N[C@H](C(=O)N2CCC[C@H]2C(N)=O)[C@@H](C)CC)NC1=O) [(Tranexamic)-IC+SRS-((tBu)A)-PPI-(Pen)+IP-NH2]', 'human MASP1 IC50', 12),
  ('AICSRSLP[Oic]I[NMeC]IPD-OH (disulfide 3-11; N-terminus assumed; SMILES CC[C@H](C)[C@H](NC(=O)[C@H](C)N)C(=O)N[C@H]1CSSC[C@@H](C(=O)N[C@H](C(=O)N2CCC[C@H]2C(=O)N[C@@H](CC(=O)O)C(=O)O)[C@@H](C)CC)N(C)C(=O)[C@H]([C@@H](C)CC)NC(=O)[C@@H]2C[C@@H]3CCCC[C@@H]3N2C(=O)[C@@H]2CCCN2C(=O)[C@H](CC(C)C)NC(=O)[C@H](CO)NC(=O)[C@H](CCCNC(=N)N)NC(=O)[C@H](CO)NC1=O) [AIC+SRSLP-(Oic)-I-((N-Me)C)+IPD-OH]', 'human MASP1 IC50', 4.4),
  ('AICSRSLPP[Chg]CIPD-NH2 (disulfide 3-11; N-terminus assumed; SMILES CC[C@H](C)[C@H](NC(=O)[C@H](C)N)C(=O)N[C@H]1CSSC[C@@H](C(=O)N[C@H](C(=O)N2CCC[C@H]2C(=O)N[C@@H](CC(=O)O)C(N)=O)[C@@H](C)CC)NC(=O)[C@H](C2CCCCC2)NC(=O)[C@@H]2CCCN2C(=O)[C@@H]2CCCN2C(=O)[C@H](CC(C)C)NC(=O)[C@H](CO)NC(=O)[C@H](CCCNC(=N)N)NC(=O)[C@H](CO)NC1=O) [AIC+SRSLPP-(Chg)-C+IPD-NH2]', 'human MASP1 IC50', 9.8);

Turning now to a further binder:
I have this binder here, [Sar]ICSRSLP[Oic]I[Pen]IPE-NH2 (disulfide 3-11; N-terminus assumed; SMILES CC[C@H](C)[C@H](NC(=O)CNC)C(=O)N[C@H]1CSSC(C)(C)[C@@H](C(=O)N[C@H](C(=O)N2CCC[C@H]2C(=O)N[C@@H](CCC(=O)O)C(N)=O)[C@@H](C)CC)NC(=O)[C@H]([C@@H](C)CC)NC(=O)[C@@H]2C[C@@H]3CCCC[C@@H]3N2C(=O)[C@@H]2CCCN2C(=O)[C@H](CC(C)C)NC(=O)[C@H](CO)NC(=O)[C@H](CCCNC(=N)N)NC(=O)[C@H](CO)NC1=O) [((N-Me)G)-IC+SRSLP-(Oic)-I-(Pen)+IPE-NH2] , and I need its recorded human MASP1 IC50. 4.3
